# assayComment: physchem
# Assay type: physicochemical
# conditionSet: 4 °C, pH 3.4, aqueous buffer, thermodynamic from solid, solubility limit in high acid beverage
reportedProperty: solubility (µg/mL)
Please state the figure in µg/mL; there is no need to write the unit.

GET /values?readout=solubility&item= "C[C@@H]1C/C=C/C=C/C=C/C=C/[C@H](O[C@@H]2O[C@H](C)[C@@H](O)[C@H](N)[C@@H]2O)C[C@@H]2O[C@](O)(C[C@@H](O)C[C@H]3O[C@@H]3/C=C/C(=O)O1)C[C@H](O)[C@H]2C(=O)O" 10

Where do these numbers come from? They come from patent US8435582B2.
